- testTarget: M1 muscarinic receptor (Homo sapiens, UniProt P11229)
- Construct: expressed in transfected cells; host or cells: CHO cells (M1-CHO, under zeocin and G418 selection)
- Sequence (P11229 1-460): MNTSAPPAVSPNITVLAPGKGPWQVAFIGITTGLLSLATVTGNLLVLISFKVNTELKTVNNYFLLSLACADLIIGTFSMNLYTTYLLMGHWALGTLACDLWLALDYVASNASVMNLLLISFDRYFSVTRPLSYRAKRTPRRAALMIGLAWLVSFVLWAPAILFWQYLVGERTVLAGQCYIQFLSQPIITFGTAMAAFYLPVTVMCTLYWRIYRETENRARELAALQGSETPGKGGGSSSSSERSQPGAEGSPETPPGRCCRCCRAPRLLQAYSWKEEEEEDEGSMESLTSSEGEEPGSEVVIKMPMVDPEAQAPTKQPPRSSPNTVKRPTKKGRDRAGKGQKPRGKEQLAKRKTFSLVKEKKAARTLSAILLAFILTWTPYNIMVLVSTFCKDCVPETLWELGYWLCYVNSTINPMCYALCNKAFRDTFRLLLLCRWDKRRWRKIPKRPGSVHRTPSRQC
- assayText: Functional mobilization of intracellular calcium (FLIPR, Fluo-3), M1-CHO cells
- Format: cell-based
- studyConditions: compound nos. 1-454; 100% efficacy is the maximum response obtained with the Carbachol control; read-out: M1 Efficacy
readoutKind: Emax

[[record]]
compound = "O=C(OC1CCCC1)N1C2CCC1CC(N1CCC3(CC1)COc1ccc(F)cc13)C2 (centres unmarked) [compound 133]"
readoutkind = "Emax"
result = "> 85%"

[[record]]
compound = "CN(C)C(=O)N1CC2(CCN(CC3CCN(c4cnccn4)C3)CC2)c2cc(F)ccc21 (centres unmarked) [compound 448]"
readoutkind = "Emax"
result = "> 85%"

[[record]]
compound = "CC(=O)N1CC2(CCN(C3CC4CCC(C3)N4C(=O)OC(C)C)CC2)c2cc(F)ccc21 (centres unmarked) [compound 94]"
readoutkind = "Emax"
result = "< 65%"

[[record]]
compound = "Cc1ccc2c(c1)C1(CCN(CC3CCC4CCC3C4)CC1)CN2 (centres unmarked) [compound 241]"
readoutkind = "Emax"
result = "< 65%"

[[record]]
compound = "CCOC(=O)N1C2CCC1CC(N1CCC3(CC1)CN(C(=O)O[C@@H]1CCOC1)c1ccc(F)cc13)C2 (some centres unmarked) [compound 344]"
readoutkind = "Emax"
result = "65 to 85%"

[[record]]
compound = "CC(=O)N1CC2(CCN(CC3CCN(C(=O)O[C@@H]4CCOC4)CC3)CC2)c2cc(F)ccc21 [compound 14]"
readoutkind = "Emax"
result = "65 to 85%"

[[record]]
compound = "Cc1ccc2c(c1)C1(CCN(CC3CC4C=CC3C4)CC1)CN2 (centres unmarked) [compound 3]"
readoutkind = "Emax"
result = "65 to 85%"

[[record]]
compound = "CC(=O)N1CC2(CCN(C3CC4CCC(C4)C3)CC2)c2cc(F)ccc21 (centres unmarked) [compound 35]"
readoutkind = "Emax"
result = "> 85%"

[[record]]
compound = "CCOC(=O)N1C2CCC1CC(N1CCC3(CC1)CN(C(=O)C(C)C)c1ccc(F)cc13)C2 (centres unmarked) [compound 390]"
readoutkind = "Emax"
result = "65 to 85%"

[[record]]
compound = "CCOC(=O)N1CCC(N2CCC3(CC2)CN(CC(C)=O)c2ccc(F)cc23)CC1 [compound 249]"
readoutkind = "Emax"
result = "65 to 85%"

[[record]]
compound = "CCOC(=O)N1CCC(N2CCC3(CC2)CN(C(C)=O)c2ccc(-c4ccc(OC)cc4)cc23)CC1 [compound 193]"
readoutkind = "Emax"
result = "< 65%"

[[record]]
compound = "CC(C)OC(=O)N1C2CCC1CC(N1CCC3(CCc4ccccc43)CC1)C2 (centres unmarked) [compound 285]"
readoutkind = "Emax"
result = "< 65%"

[[record]]
compound = "COCCOC(=O)N1C2CCC1CC(N1CCC3(CC1)CN(C(=O)C1CC1)c1ccc(F)cc13)C2 (centres unmarked) [compound 311]"
readoutkind = "Emax"
result = "65 to 85%"

[[record]]
compound = "CCOC(=O)N1CCC(N2CCC3(CC2)CN(C(C)=O)c2ccc(-c4ccc(C#N)cc4)cc23)CC1 [compound 253]"
readoutkind = "Emax"
result = "65 to 85%"

[[record]]
compound = "CC(C)COC(=O)N1C2CCC1CC(N1CCC3(CC1)COc1ccc(F)cc13)C2 (centres unmarked) [compound 160]"
readoutkind = "Emax"
result = "> 85%"

[[record]]
compound = "CCNC(=O)N1C2CCC1CC(N1CCC3(CC1)COc1ccc(F)cc13)C2 (centres unmarked) [compound 219]"
readoutkind = "Emax"
result = "65 to 85%"

[[record]]
compound = "CCOC(=O)N1CCC(N2CCC3(CC2)CN(C(C)=O)c2c(F)cccc23)CC1 [compound 381]"
readoutkind = "Emax"
result = "65 to 85%"


---

- testTarget: M4 muscarinic receptor (Homo sapiens, UniProt P08173)
- Construct: expressed in transfected cells; host or cells: CHO cells (M4-CHO, under puromycin, zeocin and blasticidin selection)
- Sequence (P08173 1-479): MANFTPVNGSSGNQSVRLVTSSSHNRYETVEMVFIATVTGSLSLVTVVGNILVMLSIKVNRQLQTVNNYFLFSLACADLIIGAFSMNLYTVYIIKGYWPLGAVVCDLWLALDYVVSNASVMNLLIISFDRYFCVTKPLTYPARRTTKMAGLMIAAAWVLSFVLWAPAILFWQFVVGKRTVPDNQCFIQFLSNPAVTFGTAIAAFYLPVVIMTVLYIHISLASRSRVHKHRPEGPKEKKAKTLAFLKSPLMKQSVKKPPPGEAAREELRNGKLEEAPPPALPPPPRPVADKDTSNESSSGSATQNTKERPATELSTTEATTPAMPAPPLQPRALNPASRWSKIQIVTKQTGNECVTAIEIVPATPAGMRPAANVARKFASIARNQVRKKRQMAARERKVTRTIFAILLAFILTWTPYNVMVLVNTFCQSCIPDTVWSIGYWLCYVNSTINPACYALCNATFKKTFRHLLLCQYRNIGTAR
- assayText: Functional mobilization of intracellular calcium (FLIPR, Fluo-3), M4-CHO cells
- Assay type: cell-based
- studyConditions: compound nos. 1-454; 100% efficacy is the maximum response obtained with the Carbachol control; read-out: M4 Efficacy
readoutKind: Emax

[[record]]
compound = "O=C(O[C@H]1CCOC1)N1C2CCC1CC(N1CCC3(CCc4ccccc43)CC1)C2 (stereo partly shown)"
testtarget = "M4 muscarinic receptor (Homo sapiens, UniProt P08173)"
readoutkind = "Emax"
result = "55 to 70%"

[[record]]
compound = "CCOC(=O)N1CCC(N2CCC3(CC2)CN(C(C)=O)c2ccc(-c4ccsc4)cc23)CC1"
testtarget = "M4 muscarinic receptor (Homo sapiens, UniProt P08173)"
readoutkind = "Emax"
result = "> 70%"

[[record]]
compound = "CC(=O)N1CC2(CCN(C3CCN(C(=O)OCCF)CC3)CC2)c2cc(F)ccc21"
testtarget = "M4 muscarinic receptor (Homo sapiens, UniProt P08173)"
readoutkind = "Emax"
result = "55 to 70%"

[[record]]
compound = "CCOC(=O)N(C)[C@H]1CC2(CCN(C[C@H]3C[C@H]4CC[C@H]3C4)CC2)c2ccccc21"
testtarget = "M4 muscarinic receptor (Homo sapiens, UniProt P08173)"
readoutkind = "Emax"
result = "> 70%"


---

Reported Emax by item:
- testTarget: M1 muscarinic receptor (Homo sapiens)
- Construct: expressed in transfected cells; host or cells: CHO cells (M1-CHO, under zeocin and G418 selection)
- assayText: Functional mobilization of intracellular calcium (FLIPR, Fluo-3), M1-CHO cells
- Assay type: cell-based
- studyConditions: compound nos. 1-454; 100% efficacy is the maximum response obtained with the Carbachol control; read-out: M1 Efficacy
- Method: CHO cells expressing muscarinic receptors (M1 to M5) are grown as monolayers in tissue culture flasks at 37° C. in a humidified atmosphere containing 5% CO2 and passaged every 3-5 days. […] The potency, efficacy and selectivity of the muscarinic compounds were evaluated by screening the compound activity across the whole family (M1 to M5 cells). […]
readoutKind: Emax

[[record]]
compound = "COCCOC(=O)N1CC2(CCN(C3CC4CCC(C3)N4C(=O)OCCOC)CC2)c2cc(F)ccc21 (centres unmarked)"
testtarget = "M1 muscarinic receptor (Homo sapiens)"
result = "65 to 85%"

[[record]]
compound = "CCOC(=O)N1CCC(N2CCC3(CC2)CN(C(=O)OCCF)c2ccc(F)cc23)CC1"
testtarget = "M1 muscarinic receptor (Homo sapiens)"
result = "65 to 85%"

[[record]]
compound = "CC(=O)N1CC2(CCN(C3CCN(C(=O)O[C@H]4CCOC4)CC3)CC2)c2cc(F)ccc21"
testtarget = "M1 muscarinic receptor (Homo sapiens)"
result = "< 65%"

[[record]]
compound = "CCOC(=O)N1CCC(N2CCC3(CC2)CN(C(C)=O)c2ccc(-c4ccc(C(C)=O)cc4)cc23)CC1"
testtarget = "M1 muscarinic receptor (Homo sapiens)"
result = "65 to 85%"

[[record]]
compound = "CC(C)OC(=O)N1C2CCC1CC(N1CCC3(CC1)CN(C(=O)OC1CCC1)c1ccc(F)cc13)C2 (centres unmarked)"
testtarget = "M1 muscarinic receptor (Homo sapiens)"
result = "> 85%"

[[record]]
compound = "O=C(OC1CCC1)N1C2CCC1CC(N1CCC3(CC1)COc1ccc(F)cc13)C2 (centres unmarked)"
testtarget = "M1 muscarinic receptor (Homo sapiens)"
result = "< 65%"

[[record]]
compound = "CC(=O)N[C@H]1CC2(CCN(C3CCC[C@@H](C)C3)CC2)c2ccccc21 (some centres unmarked)"
testtarget = "M1 muscarinic receptor (Homo sapiens)"
result = "65 to 85%"

[[record]]
compound = "COCCOC(=O)N1CCC(N2CCC3(CC2)CN(C(C)=O)c2ccc(C)cc23)CC1"
testtarget = "M1 muscarinic receptor (Homo sapiens)"
result = "> 85%"


Value source: patent US7858635B2
